Consider the following compounds; for each one, report its IC50.
TEST_TARGET: CYP2D6 (Homo sapiens, UniProt P10635)
Sequence (P10635 whole entry): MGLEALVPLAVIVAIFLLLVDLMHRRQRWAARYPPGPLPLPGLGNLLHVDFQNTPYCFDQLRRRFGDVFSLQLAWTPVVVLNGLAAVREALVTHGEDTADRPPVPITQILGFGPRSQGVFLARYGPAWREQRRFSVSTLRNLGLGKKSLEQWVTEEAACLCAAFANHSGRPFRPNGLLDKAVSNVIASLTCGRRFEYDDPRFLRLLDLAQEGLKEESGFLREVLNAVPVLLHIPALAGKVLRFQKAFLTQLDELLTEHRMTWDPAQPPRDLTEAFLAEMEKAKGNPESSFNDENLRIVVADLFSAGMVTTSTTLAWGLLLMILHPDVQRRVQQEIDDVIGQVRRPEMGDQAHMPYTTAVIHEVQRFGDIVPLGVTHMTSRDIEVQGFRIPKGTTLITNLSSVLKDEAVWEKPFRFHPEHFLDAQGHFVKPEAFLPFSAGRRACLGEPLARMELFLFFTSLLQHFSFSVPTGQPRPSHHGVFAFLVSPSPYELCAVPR
ASSAY_PROCEDURE: Inhibitory activity on CYP2D6, human recombinant CYPs
EXPERIMENTAL_CONDITIONS: human recombinant CYP2D6, substrate ethylene glycol ester of luciferin-6'-methyl ether; read-out: CYP 2D6 inhibition, IC50 value

**Query** Entry under review: Cn1ccnc1-c1ccc(C2CN(c3nc(-c4ccncn4)cc(=O)n3C)CCO2)cc1 (stereo not shown) . Reported IC50?
**Result** > 50 µM

**Query** Entry under review: Cn1c(N2CCOC(c3noc(-c4ccccc4)n3)C2)nc(-c2ccncn2)cc1=O (stereo not shown) . Reported IC50?
**Result** > 25 µM

**Query** Entry under review: "Cc1nc(-c2ccc([C@H]3CN(c4nc(-c5ccncn5)cc(=O)n4C)CCO3)cc2)no1" . Reported IC50?
**Result** > 50 µM

**Query** Entry under review: Cn1c(N2CCOC(c3nc(-c4ccccc4)no3)C2)nc(-c2ccncn2)cc1=O (stereo not shown) . Reported IC50?
**Result** > 50 µM

Each recorded value in this set is attributed to patent US8518939B2.
